tested on: PPARa:RXRa (NR concentration 270 nM, RXRa partner concentration 90 nM); assay: PBM binding z-score (relative to random genomic background probes); higher = stronger binding; sequences stand for … in GC…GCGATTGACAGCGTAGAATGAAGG
PBM binding z-score of 0.9 or higher: true. Under 0.9: false.

>>> df
                        sequence_entry                       experimental_system  discrete_label
 0  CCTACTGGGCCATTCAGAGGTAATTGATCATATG  PPARa:RXRa (NR concentration 270 nM, RXRa partner concentration 90 nM)           false
 1  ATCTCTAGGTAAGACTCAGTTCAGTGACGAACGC  PPARa:RXRa (NR concentration 270 nM, RXRa partner concentration 90 nM)           false
 2  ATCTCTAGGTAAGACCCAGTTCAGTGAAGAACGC  PPARa:RXRa (NR concentration 270 nM, RXRa partner concentration 90 nM)           false
 3  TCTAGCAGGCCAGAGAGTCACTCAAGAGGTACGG  PPARa:RXRa (NR concentration 270 nM, RXRa partner concentration 90 nM)           false
 4  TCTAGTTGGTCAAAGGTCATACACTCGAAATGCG  PPARa:RXRa (NR concentration 270 nM, RXRa partner concentration 90 nM)            true
 5  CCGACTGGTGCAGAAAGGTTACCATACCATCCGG  PPARa:RXRa (NR concentration 270 nM, RXRa partner concentration 90 nM)            true
 6  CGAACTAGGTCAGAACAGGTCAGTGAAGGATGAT  PPARa:RXRa (NR concentration 270 nM, RXRa partner concentration 90 nM)            true
 7  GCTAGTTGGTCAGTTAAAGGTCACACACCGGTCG  PPARa:RXRa (NR concentration 270 nM, RXRa partner concentration 90 nM)            true
 8  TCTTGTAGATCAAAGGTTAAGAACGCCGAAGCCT  PPARa:RXRa (NR concentration 270 nM, RXRa partner concentration 90 nM)            true
 9  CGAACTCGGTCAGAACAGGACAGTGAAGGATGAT  PPARa:RXRa (NR concentration 270 nM, RXRa partner concentration 90 nM)           false
10  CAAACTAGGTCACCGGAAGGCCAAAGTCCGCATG  PPARa:RXRa (NR concentration 270 nM, RXRa partner concentration 90 nM)            true
11  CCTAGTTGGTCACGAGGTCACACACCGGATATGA  PPARa:RXRa (NR concentration 270 nM, RXRa partner concentration 90 nM)            true
12  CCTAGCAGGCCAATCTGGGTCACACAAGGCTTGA  PPARa:RXRa (NR concentration 270 nM, RXRa partner concentration 90 nM)            true
13  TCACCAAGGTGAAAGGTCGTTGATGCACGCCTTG  PPARa:RXRa (NR concentration 270 nM, RXRa partner concentration 90 nM)            true
14  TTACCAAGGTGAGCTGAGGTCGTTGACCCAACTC  PPARa:RXRa (NR concentration 270 nM, RXRa partner concentration 90 nM)            true
15  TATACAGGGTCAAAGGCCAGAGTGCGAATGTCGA  PPARa:RXRa (NR concentration 270 nM, RXRa partner concentration 90 nM)            true
16  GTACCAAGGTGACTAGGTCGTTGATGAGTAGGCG  PPARa:RXRa (NR concentration 270 nM, RXRa partner concentration 90 nM)            true
17  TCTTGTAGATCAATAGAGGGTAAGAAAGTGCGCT  PPARa:RXRa (NR concentration 270 nM, RXRa partner concentration 90 nM)           false
18  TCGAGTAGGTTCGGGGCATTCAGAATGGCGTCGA  PPARa:RXRa (NR concentration 270 nM, RXRa partner concentration 90 nM)           false
19  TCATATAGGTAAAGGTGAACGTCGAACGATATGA  PPARa:RXRa (NR concentration 270 nM, RXRa partner concentration 90 nM)            true
20  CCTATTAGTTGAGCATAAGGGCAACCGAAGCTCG  PPARa:RXRa (NR concentration 270 nM, RXRa partner concentration 90 nM)           false
21  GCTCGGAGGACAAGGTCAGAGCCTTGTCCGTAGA  PPARa:RXRa (NR concentration 270 nM, RXRa partner concentration 90 nM)            true
22  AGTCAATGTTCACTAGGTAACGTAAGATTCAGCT  PPARa:RXRa (NR concentration 270 nM, RXRa partner concentration 90 nM)           false
23  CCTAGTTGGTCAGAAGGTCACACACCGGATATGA  PPARa:RXRa (NR concentration 270 nM, RXRa partner concentration 90 nM)            true
24  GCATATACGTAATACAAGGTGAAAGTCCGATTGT  PPARa:RXRa (NR concentration 270 nM, RXRa partner concentration 90 nM)           false
25  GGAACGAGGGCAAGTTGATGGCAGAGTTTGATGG  PPARa:RXRa (NR concentration 270 nM, RXRa partner concentration 90 nM)            true
26  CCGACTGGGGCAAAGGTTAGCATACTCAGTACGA  PPARa:RXRa (NR concentration 270 nM, RXRa partner concentration 90 nM)            true
27  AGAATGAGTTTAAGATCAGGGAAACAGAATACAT  PPARa:RXRa (NR concentration 270 nM, RXRa partner concentration 90 nM)           false
28  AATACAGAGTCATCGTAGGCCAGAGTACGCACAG  PPARa:RXRa (NR concentration 270 nM, RXRa partner concentration 90 nM)           false
29  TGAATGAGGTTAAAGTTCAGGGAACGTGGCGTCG  PPARa:RXRa (NR concentration 270 nM, RXRa partner concentration 90 nM)            true
30  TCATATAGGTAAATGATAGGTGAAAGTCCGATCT  PPARa:RXRa (NR concentration 270 nM, RXRa partner concentration 90 nM)            true
31  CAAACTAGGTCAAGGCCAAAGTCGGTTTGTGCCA  PPARa:RXRa (NR concentration 270 nM, RXRa partner concentration 90 nM)            true
32  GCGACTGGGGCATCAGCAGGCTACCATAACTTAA  PPARa:RXRa (NR concentration 270 nM, RXRa partner concentration 90 nM)           false
33  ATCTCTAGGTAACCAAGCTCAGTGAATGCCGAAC  PPARa:RXRa (NR concentration 270 nM, RXRa partner concentration 90 nM)           false
34  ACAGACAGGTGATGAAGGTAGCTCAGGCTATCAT  PPARa:RXRa (NR concentration 270 nM, RXRa partner concentration 90 nM)           false
35  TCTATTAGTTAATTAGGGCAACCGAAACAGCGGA  PPARa:RXRa (NR concentration 270 nM, RXRa partner concentration 90 nM)            true
36  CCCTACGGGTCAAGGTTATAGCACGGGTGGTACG  PPARa:RXRa (NR concentration 270 nM, RXRa partner concentration 90 nM)            true
37  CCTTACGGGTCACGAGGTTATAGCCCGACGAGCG  PPARa:RXRa (NR concentration 270 nM, RXRa partner concentration 90 nM)            true
38  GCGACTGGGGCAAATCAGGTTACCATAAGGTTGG  PPARa:RXRa (NR concentration 270 nM, RXRa partner concentration 90 nM)            true
39  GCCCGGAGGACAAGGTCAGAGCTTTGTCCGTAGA  PPARa:RXRa (NR concentration 270 nM, RXRa partner concentration 90 nM)            true
40  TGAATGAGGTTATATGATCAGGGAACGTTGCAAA  PPARa:RXRa (NR concentration 270 nM, RXRa partner concentration 90 nM)            true
41  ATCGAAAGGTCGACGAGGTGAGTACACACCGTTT  PPARa:RXRa (NR concentration 270 nM, RXRa partner concentration 90 nM)            true
42  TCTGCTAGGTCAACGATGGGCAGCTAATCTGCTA  PPARa:RXRa (NR concentration 270 nM, RXRa partner concentration 90 nM)            true
43  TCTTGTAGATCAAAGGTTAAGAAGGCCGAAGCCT  PPARa:RXRa (NR concentration 270 nM, RXRa partner concentration 90 nM)            true
44  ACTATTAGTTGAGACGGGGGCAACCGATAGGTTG  PPARa:RXRa (NR concentration 270 nM, RXRa partner concentration 90 nM)            true
45  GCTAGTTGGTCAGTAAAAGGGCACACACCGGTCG  PPARa:RXRa (NR concentration 270 nM, RXRa partner concentration 90 nM)           false
46  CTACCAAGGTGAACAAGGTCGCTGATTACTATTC  PPARa:RXRa (NR concentration 270 nM, RXRa partner concentration 90 nM)            true
47  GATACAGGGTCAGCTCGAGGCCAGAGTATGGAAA  PPARa:RXRa (NR concentration 270 nM, RXRa partner concentration 90 nM)            true
48  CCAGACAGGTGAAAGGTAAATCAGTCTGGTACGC  PPARa:RXRa (NR concentration 270 nM, RXRa partner concentration 90 nM)            true
49  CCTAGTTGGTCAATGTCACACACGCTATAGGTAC  PPARa:RXRa (NR concentration 270 nM, RXRa partner concentration 90 nM)           false
